Molecular target: MASP-2 CCP2-SP (Homo sapiens (Human), UniProt O00187)
Sequence (O00187 445-686): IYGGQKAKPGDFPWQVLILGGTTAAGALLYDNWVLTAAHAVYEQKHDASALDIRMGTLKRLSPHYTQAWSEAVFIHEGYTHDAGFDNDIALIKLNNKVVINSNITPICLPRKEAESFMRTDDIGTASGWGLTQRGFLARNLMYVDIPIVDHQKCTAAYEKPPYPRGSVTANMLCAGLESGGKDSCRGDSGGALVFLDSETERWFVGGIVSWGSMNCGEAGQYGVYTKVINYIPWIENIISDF
Sequence (O00187 364-432 partner): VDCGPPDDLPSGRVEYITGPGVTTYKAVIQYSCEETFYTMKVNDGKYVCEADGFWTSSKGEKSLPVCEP
Test: MASP-2 co-crystallization, X-ray crystallography and structure analysis (H-bonds, van der Waals contacts)
Design: unit not given beside the values
Conditions: Table A5-2 pharmacophore distance, S3/S4 region
Counter-ions that a name gives are not always drawn.
Each entry below carries its recorded d(N2,C2).
Measured endpoint: d(N2,C2)

C[C@H](NC(=O)[C@H]1C[C@@H](c2ccccc2)CCN1)C(=O)NCc1cc(Cl)ccc1O.Cl [1078_8]
1.44
C[C@H](NC(=O)[C@H](N)C1Cc2ccccc2C1)C(=O)NCc1ccc2nc(N)[nH]c2c1 [compound 1059]
3.70
C[C@H](NC(=O)[C@H](N)CCCc1ccccc1)C(=O)NCc1ccc(C(=N)N)cc1.Cl.Cl [1042_2]
4.38
C[C@H](NC(=O)C1C[C@@H](c2ccccc2)CCN1)C(=O)NCc1ccc(C(=N)N)cc1 (stereo in doubt) [compound 1063]
1.38
Cc1nc(N)ccc1CNC(=O)[C@H](C)NC(=O)[C@H]1C[C@@H](c2ccccc2)CCN1 [compound 1253, Dihydrochloride]
1.46
C[C@H](NC(=O)[C@H](N)CCCc1ccccc1)C(=O)NCc1ccc(C(=N)N)cc1.Cl.Cl [1042_1]
3.42
C[C@H](NC(=O)[C@H]1C[C@@H](c2ccccc2)CCN1)C(=O)NCc1cc(Cl)ccc1O.Cl [1078_7]
1.47
